Values were extracted from patent US20240228660A1.

Please go through the items and note down their koff.
target: human full-length VWF (human, UniProt P04275 764-2813); assay: SPR, Biacore T200, antibody captured on Protein A, full-length VWF as analyte, single-cycle kinetics
Numeric only. Scale: s⁻¹

Value lookup for koff; key = 1-A2_H0_L0 (antibody, human IgG1, kappa, V domains shown, humanised, human IgG1 kappa) VH: QVQLVESGGGVVQPGRSLRLSCAASGFTFSSNAMNWVRQAPGKGLEWVAGIYGHDTSYYAAWAKGRFTISRDNSKNTLYLQMNSLRAEDTAVYYCARGFIYFDIWGQGTLVTVSS VL: DIQMTQSPSSLSASVGDRVTITCLASEDIYSGISWYQQKPGKAPKLLIYGASNLESGVPSRFSGSGSGTDFTLTISSLQPEDFATYYCLGGHSHSTTDLTFGGGTKVEIKT
2.74e-08

Value lookup for koff; key = 1-A2_VH-par_L1 (antibody, human IgG1, kappa, V domains shown, also called 1-A2_L1 (hIgG1K)) VH: SQSVEESGGRLVPPGTPLTLTCTVSGIDLTSNAMNWVRQAPGKGLEWIGGIYGHDTSYYAAWAKGRFTISRTSTTVDLKMTRPTTDDTATYFCARGFIYFDIWGTGTLVTISS VL: DIQMTQSPSSLSASVGDRVTITCLASEDIYSGISWYQQKPGKAPKLLIYGASNLESGVPSRFSGSGSGTDYTLTISSLQPEDFATYYCLGGHSHSTTDLTFGGGTKVEIKT
1.81e-07

Value lookup for koff; key = 1-A2_VH-par_L0 (antibody, human IgG1, kappa, V domains shown, also called 1-A2_L0 (hIgG1K)) VH: SQSVEESGGRLVPPGTPLTLTCTVSGIDLTSNAMNWVRQAPGKGLEWIGGIYGHDTSYYAAWAKGRFTISRTSTTVDLKMTRPTTDDTATYFCARGFIYFDIWGTGTLVTISS VL: DIQMTQSPSSLSASVGDRVTITCLASEDIYSGISWYQQKPGKAPKLLIYGASNLESGVPSRFSGSGSGTDFTLTISSLQPEDFATYYCLGGHSHSTTDLTFGGGTKVEIKT
7.44e-07

Value lookup for koff; key = 1-A2_H2_VL-par (antibody, human IgG1, kappa, V domains shown, also called 1-A2_H2 (hIgG1)) VH: QQLVESGGGVVQPGRSLRLSCAASGIDLTSNAMNWVRQAPGKGLEWIGGIYGHDTSYYAAWAKGRFTISRDSNTVYLQMNSLRAEDTATYFCARGFIYFDIWGQGTLVTVSS VL: AIEMTQTPPSLSASVGETVRIRCLASEDIYSGISWYQQKPGKPPTLLIYGASNLESGVPPRFSGSGSGTDYTLTIGGVQAEDAATYYCLGGHSHSTTDLTFGAGTKVEIKT
7.8e-06

Value lookup for koff; key = 1-A2_H2_L0 (antibody, human IgG1, kappa, V domains shown, humanised, human IgG1 kappa) VH: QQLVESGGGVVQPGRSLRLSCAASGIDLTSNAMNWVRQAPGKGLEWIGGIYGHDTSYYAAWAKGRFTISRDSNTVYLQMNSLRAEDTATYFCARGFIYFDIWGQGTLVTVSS VL: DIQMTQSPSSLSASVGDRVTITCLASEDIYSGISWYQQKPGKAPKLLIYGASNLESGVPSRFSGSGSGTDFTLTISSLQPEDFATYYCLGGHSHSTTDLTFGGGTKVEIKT
3.5e-06
